Source: PubChem BioAssay

Assay: COS7 lysate on small-molecule microarray, probe aHis, 635 nm (AID 1123);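 also: z-score combines 667nm fluorescence intensity with signal-to-noise per printed compound spot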
Conditions: COS7 cell lysate, fluorescence, higher = more signal
Measured composite z-score, listed per entry.
Reply with the value as a number alone.

Task: Entry COc1ccc([Si](C)(C)[C@H]2[C@H](CC(=O)N(CCO)Cc3ccccc3)O[C@@]3(C(=O)N(Cc4cccc(N5CCC5=O)c4)c4ccccc43)[C@@H]2C)cc1 needs its composite z-score filled in; supply it.
Output: 1.12

Task: Entry CC(C)=CCCC(C)=CC(O)C1C=CC2C(=O)N(c3ccccc3)C(=O)C2N1Nc1ccccc1 (stereo not given) needs its composite z-score filled in; supply it.
Output: 1.52

Task: Entry COc1ccc(CCNC(=O)[C@@]2(c3ccc([N+](=O)[O-])cc3)CC(=O)N(CC34CC5CC(CC(C5)C3)C4)[C@@H]2c2ccc(CO)cc2)cc1 needs its composite z-score filled in; supply it.
Output: 1.11

Task: Entry C=CCC(OC(C)=O)[C@@H]1[C@@H](N(Cc2ccc(-c3ccccc3)cc2)C(=O)Cc2ccc(OC)cc2)c2cc(OCCCO)ccc2N1C(=O)c1ccc2ccccc2n1 (stereo not given in full) needs its composite z-score filled in; supply it.
Output: 0.514

Task: Entry COc1ccc([Si](C)(C)[C@@H]2[C@@H](CCn3cc([C@H](O)c4ccccc4)nn3)O[C@]3(C(=O)N(Cc4ccc(N5C(=O)c6cccc7cccc5c67)cc4)c4ccccc43)[C@H]2C)cc1 needs its composite z-score filled in; supply it.
Output: 0.791

----------
Tested on: Human papillomavirus type 1a E7 protein (residues 1-88)
Assay: HPV1a E7 small-molecule binders, primary screen, biochemical, small-molecule microarray, residues 1-88, 635 nm (AID 1129)
Details: small-molecule microarray binding, fluorescence 635 nm; higher = more signal
Metric name: composite z-score
Reply with the value as a number alone.

Below, each entry is followed by its recorded composite z-score result.
CCCNC(=O)[C@@H]1c2ccccc2C(=O)N(Cc2ccccc2)[C@H]1c1ccc(CO)cc1 = -0.081
CCOC(=O)C1=C[C@@H](CC)N(S(=O)(=O)c2ccc(C)cc2)[C@H]1c1ccccc1 = 1.21
CS(=O)(=O)CCOC(=O)C1=CC(CCCO)=CC(c2cccs2)N(Cc2cc3c(cc2Br)OCO3)C=C1C(=O)OCCS(C)(=O)=O (configuration not stated) = 1.21
COc1ccc(C(O)C2C=CC3C(=O)N(c4ccccc4)C(=O)C3N2Nc2ccc([N+](=O)[O-])cc2)cc1OCc1ccccc1 (configuration not stated) = 1.2
COc1ccc(C#Cc2ccc3c(c2)[C@]2(C(=O)N3)[C@H](c3ccc(O)cc3)N3[C@H](c4ccccc4)[C@H](c4ccccc4)OC(=O)[C@H]3[C@@H]2C(=O)N2CCCCCCC2)cc1 = 1.22
CCC(CC)C(O)C1C=CC2C(=O)N(c3ccccc3)C(=O)C2N1Nc1ccc(C#N)cc1 (configuration not stated) = 1.27

Task: Entry Cc1ccc(S[C@]2(C(=O)NCC(C)C)CC(=O)N(Cc3ccccc3Cl)[C@@H]2c2ccc(CO)cc2)cc1 needs its composite z-score filled in; supply it.
Output: -1.41

Task: Entry COC(=O)[C@@]1(Cc2ccc(OC)cc2)[C@H]2c3cc(C(=O)N4CCCC4)n(CCc4c[nH]c5cc(F)ccc45)c3C[C@H]2CN1C(=O)c1ccccc1 needs its composite z-score filled in; supply it.
Output: 1.25

Task: Entry C=C(CCCC)C(=O)CC[C@H](OC(=O)c1cccnc1)c1cccc(OCCO)c1 needs its composite z-score filled in; supply it.
Output: -0.395

Task: Entry COC(=O)c1c(CC[C@@H](CO)NC(=O)N[C@@H](Cc2ccccc2)Cn2cc(C3(O)CCCCC3)nn2)oc(C(C)=O)c1C(=O)OC needs its composite z-score filled in; supply it.
Output: 0.868

Task: Entry Cc1ccc(F)cc1S(=O)(=O)N[C@@H]1CCN(Cc2ccc(-c3ccccc3)cc2)C1 needs its composite z-score filled in; supply it.
Output: 0.517

Task: Entry CCOC(=O)[C@H]1C[C@H]2O[C@@]23C[C@H]1C(=O)N1CCCC1[C@@H]3O[Si](C)(C)C(C)(C)C (some centres not stated) needs its composite z-score filled in; supply it.
Output: -0.311

Task: Entry C[C@]1(C(=O)NCc2ccccc2)c2ccccc2C(=O)N(Cc2ccc(OC(F)(F)F)cc2)[C@H]1c1ccc(CO)cc1 needs its composite z-score filled in; supply it.
Output: 1.02

Task: Entry C=CCNC(=O)[C@H]1[C@@H]2C(=O)O[C@@H](c3ccccc3)[C@@H](c3ccccc3)N2[C@@H](c2ccc(O)cc2)[C@]12C(=O)N(C(=O)OCCOC)c1ccc(C#CCCO)cc12 needs its composite z-score filled in; supply it.
Output: -0.0757

Task: Entry COc1ccc(C#Cc2ccc3c(c2)[C@]2(C(=O)N3)[C@H](C(=O)NC[C@H](O)c3ccccc3)[C@H]3C(=O)O[C@H](c4ccccc4)[C@H](c4ccccc4)N3[C@@H]2c2ccc(OCCO)cc2)cc1 needs its composite z-score filled in; supply it.
Output: 0.991

Task: Entry O=C1OCCC=C[C@H]2OC34C=CCN(Cc5ccccc5)C(=O)[C@H]3N(CCCCCCO)C(=O)[C@@H]4C12 (some centres not stated) needs its composite z-score filled in; supply it.
Output: -0.374

Task: Entry Cc1ccc(S[C@]2(C(=O)NCc3ccccc3)CC(=O)N(Cc3ccccc3)[C@@H]2c2ccc(CO)cc2)cc1 needs its composite z-score filled in; supply it.
Output: 0.0804

----------
Target: NADPH oxidase 5 (Homo sapiens) (UniProt Q96PH1)
Sequence (Q96PH1 whole entry, looked up): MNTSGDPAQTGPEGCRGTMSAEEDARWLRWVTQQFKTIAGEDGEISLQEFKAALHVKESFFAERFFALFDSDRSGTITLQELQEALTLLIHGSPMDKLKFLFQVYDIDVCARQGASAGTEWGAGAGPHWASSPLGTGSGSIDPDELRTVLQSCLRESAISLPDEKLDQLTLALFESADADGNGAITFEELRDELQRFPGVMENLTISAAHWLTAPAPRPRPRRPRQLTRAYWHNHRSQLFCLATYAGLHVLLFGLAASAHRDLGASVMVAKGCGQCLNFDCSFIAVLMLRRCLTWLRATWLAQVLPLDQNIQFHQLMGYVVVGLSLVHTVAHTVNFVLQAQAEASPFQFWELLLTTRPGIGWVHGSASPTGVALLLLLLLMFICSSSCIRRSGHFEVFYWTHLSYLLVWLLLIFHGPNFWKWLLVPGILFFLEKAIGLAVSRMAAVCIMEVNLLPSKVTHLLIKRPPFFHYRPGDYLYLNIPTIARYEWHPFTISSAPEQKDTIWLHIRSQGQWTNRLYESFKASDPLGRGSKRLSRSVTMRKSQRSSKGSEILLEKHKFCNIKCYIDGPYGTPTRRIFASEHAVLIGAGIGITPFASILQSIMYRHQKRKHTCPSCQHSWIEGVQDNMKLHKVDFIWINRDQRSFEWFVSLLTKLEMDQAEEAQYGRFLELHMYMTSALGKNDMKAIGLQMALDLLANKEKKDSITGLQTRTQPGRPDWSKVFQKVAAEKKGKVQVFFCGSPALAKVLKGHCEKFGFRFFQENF
Test: NOX5-dependent H2O2 signal modulators, primary screen, NOX inhibitor project, cell-based, HEK293-NOX5, Amplex Red fluorescence (AID 1161)
Conditions: HEK293-NOX5, ionomycin, 45 min, higher = more signal
Metric name: z-score
Reply with the value as a number alone.

O=C(O)[C@@]1(Cc2ccccc2)N=C(c2ccc(OCCCO)cc2)O[C@H]1c1ccccc1 = 1.33
CCCNC(=O)[C@@]1(c2ccc([N+](=O)[O-])cc2)CC(=O)N(CC23CC4CC(CC(C4)C2)C3)[C@@H]1c1ccc(CO)cc1 = -0.569

Here is another compound to look at.
Task: Entry O=C1O[C@H](c2ccccc2)[C@H](c2ccccc2)N2[C@H]1[C@@H](C(=O)NC[C@H](O)c1ccccc1)[C@]1(C(=O)Nc3ccc(C#CCCO)cc31)[C@H]2c1ccc(O)cc1 needs its z-score filled in; supply it.
Output: -3.93

----------
Experiment: basal MM1S mitochondrial membrane potential changes, profiling panel, cell-based, JC-1 fluorescence, 24 h, 100 nL compound (AID 1170); also: test concentration not given here
Conditions: higher = more signal
Metric name: z-score
Reply with the value as a number alone.

Below, each entry is followed by its recorded z-score result.
NC(=O)NCC#Cc1ccc2c(c1)[C@]1(C(=O)N2)[C@H](C(=O)NC[C@H](O)c2ccccc2)[C@H]2C(=O)O[C@H](c3ccccc3)[C@H](c3ccccc3)N2[C@@H]1c1ccc(O)cc1 = -1.49
CCOC(=O)C1=CC[C@@H](c2ccccc2Cl)N(S(=O)(=O)c2ccc(C)cc2)C1 = -1.99

Task: Entry COC(=O)C[C@H]1O[C@]2(C(=O)N(Cc3ccccc3)c3ccc(NC(C)=O)cc32)[C@@H](C)[C@@H]1[Si](C)(C)c1ccc(OC)cc1 needs its z-score filled in; supply it.
Output: 0.402

Task: Entry O=C(O)[C@@]1(Cc2ccccc2)N=C(c2ccc(OCCCO)cc2)O[C@H]1c1ccccc1 needs its z-score filled in; supply it.
Output: -0.558

Task: Entry COC(=O)C1=CC(CCCO)=CC(C2CC2)N(Cc2sc3ccccc3c2Cl)C=C1C(=O)OC (centres undefined) needs its z-score filled in; supply it.
Output: 0.00801

----------
Measured z-score, listed per entry.
Test: modulators of HCV replicon luciferase signal, primary screen, HCV replication inhibitor project, Huh7 cells, luciferase reporter (AID 1109);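 also: huh7 hepatoma cells harbouring a luciferase neomycin HCV replicon reporter; luciferase luminescence as measure of HCV replicon replication; test concentration not given here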
Details: 48 h, higher = more signal
Reply with the value as a number alone.

CCOC(=O)C[C@H]1[C@H](OC(=O)c2ccc(-c3ccccc3)cc2)[C@@H](NC(=O)c2ccc(-c3ccccc3)cc2)c2cc(OCCCO)ccc2N1C(=O)Cc1ccc(OC)cc1 = -1.27
CCCN1C(=O)[C@@]2(CCC(=O)OC(C)(C)C)N=C(c3ccc(OCCCO)cc3)O[C@H]2c2ccccc21 = -2.75
NCCCCCNC(=O)[C@H]1C[C@H]2C(=O)NCC(=O)N2[C@H]1c1cccc(OCCO)c1 = -0.786
C#CCN(C(/C=C/c1ccccc1)CO)C(C(=O)O)c1ccccc1 (stereo not drawn) = -0.206
CCCCC=C[C@@H](NC(=O)c1ccco1)c1ccccc1 = -0.502
COC(=O)[C@@]1(Cc2ccc(F)cc2)[C@H]2c3cc(C(=O)N4CCCC4)n(Cc4cccc5ccccc45)c3C[C@H]2CN1C(=O)c1ccccc1 = -1.37
[N-]=[N+]=NCc1ccccc1[C@H]1OC(c2ccc(OCCCO)cc2)=N[C@@]1(CCS(=O)(=O)c1ccccc1)C(=O)N1CCOCC1 = -1.27

Task: Entry O=c1oc(-c2ccccc2)nc2cc(Br)ccc12 needs its z-score filled in; supply it.
Output: -1.04
